Where these numbers come from: patent US6211244A

For each record, write down the corresponding % activity.
Target: human calcium receptor (Homo sapiens, UniProt P41180, R990G)
Construct: expressed in transfected cells; host or cells: HEK 293
Sequence (P41180 20-1078 R990G): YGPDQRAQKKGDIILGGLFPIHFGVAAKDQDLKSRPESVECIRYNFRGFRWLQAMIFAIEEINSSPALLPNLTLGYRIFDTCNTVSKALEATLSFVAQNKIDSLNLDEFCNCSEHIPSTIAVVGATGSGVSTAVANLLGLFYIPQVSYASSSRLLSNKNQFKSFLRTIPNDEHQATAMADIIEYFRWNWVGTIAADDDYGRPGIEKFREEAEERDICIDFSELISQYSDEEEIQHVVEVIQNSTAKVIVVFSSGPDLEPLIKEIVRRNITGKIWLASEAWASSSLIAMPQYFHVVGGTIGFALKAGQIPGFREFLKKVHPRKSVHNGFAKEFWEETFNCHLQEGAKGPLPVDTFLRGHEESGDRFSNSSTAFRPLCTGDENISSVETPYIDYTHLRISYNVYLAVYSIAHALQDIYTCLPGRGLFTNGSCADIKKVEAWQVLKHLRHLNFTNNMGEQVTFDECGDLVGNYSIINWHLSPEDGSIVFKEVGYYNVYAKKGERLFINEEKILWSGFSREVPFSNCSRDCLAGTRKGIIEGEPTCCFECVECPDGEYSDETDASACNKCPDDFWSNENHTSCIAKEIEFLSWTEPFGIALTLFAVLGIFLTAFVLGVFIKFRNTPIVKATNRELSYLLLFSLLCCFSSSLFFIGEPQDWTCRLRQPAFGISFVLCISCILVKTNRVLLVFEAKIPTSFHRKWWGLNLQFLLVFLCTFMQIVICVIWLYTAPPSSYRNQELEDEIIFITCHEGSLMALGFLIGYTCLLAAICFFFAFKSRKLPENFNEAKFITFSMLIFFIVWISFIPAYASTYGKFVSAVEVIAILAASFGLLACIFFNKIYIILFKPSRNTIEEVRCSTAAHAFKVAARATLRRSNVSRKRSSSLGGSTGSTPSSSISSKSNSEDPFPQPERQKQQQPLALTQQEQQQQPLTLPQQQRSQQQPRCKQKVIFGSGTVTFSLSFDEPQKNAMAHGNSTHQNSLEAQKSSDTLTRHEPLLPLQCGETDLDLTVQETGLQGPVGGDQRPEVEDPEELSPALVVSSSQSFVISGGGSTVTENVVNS
Assay: increases in [Ca^2+ ]i in HEK-293 cells expressing the human calcium receptor (fura-2 loaded HEK 293/pHuPCaR4.0 cells), % activity
Assay type: cell-based
Conditions: 3300 ng/mL
Reply with just the number (in %).

INPUT: Return reported % activity; argument: CC(NCCc1ccccc1)c1ccc(C(C)(C)C)cc1 (centres unmarked) [Compound 14H]
OUTPUT: 112

INPUT: // lookup % activity for CCN(CCCc1ccccc1)C(C)c1ccc(C(C)(C)C)cc1 (centres unmarked) [Compound 14I]
OUTPUT: 80

INPUT: // lookup % activity for COc1ccc(CNC(C)c2ccc(Br)cc2)cc1C (centres unmarked) [Compound 23R]
OUTPUT: 104

INPUT: Request the reported % activity associated with COc1ccc(C(NC(C)c2cccc3ccccc23)C2CC2)cc1 (single isomer, unassigned) [Compound 17I]
OUTPUT: 118

INPUT: Look up % activity for this compound: COc1cccc(C(C)NCc2ccc(C=Cc3ccccc3)cc2)c1 (centres unmarked) [Compound 12M]
OUTPUT: 98
